Listed here are compounds together with their documented zone of inhibition at 100 µg/disc.
Tested on: Cryphonectria parasitica
Assay: Fungicidal activity against Cryphonectria parasitica assessed as inhibition of fungal growth at 100 ug after 7 days
Assay type: functional
Settings: 168 h, read-out: DIZ
Kindly provide the numeric value in mm only, without the unit symbol.

compound="O=Cc1c[nH]c2ccccc12 [3-FORMYLINDOLE]" readout_label="zone of inhibition at 100 µg/disc" test_result=15
compound="CC(C)=CCC[C@@](C)(O)[C@H]1CC[C@](C)(O)[C@@H]1C [CYCLONERODIOL]" readout_label="zone of inhibition at 100 µg/disc" test_result=13
compound="CC(=O)NC(C)=O [DIACETAMIDE]" readout_label="zone of inhibition at 100 µg/disc" test_result=14
compound=COC(=O)c1c[nH]c2ccccc12 readout_label="zone of inhibition at 100 µg/disc" test_result=11
compound="OCCc1c[nH]c2ccccc12 [TRYPTOPHOL]" readout_label="zone of inhibition at 100 µg/disc" test_result=14

Value lookup for zone of inhibition at 100 µg/disc; key = O=C(O)Cc1c[nH]c2ccccc12 [INDOLE-3-ACETIC ACID] 21
